The measured values listed here are drawn from patent US20210070872A1.

# koff per entry
Molecular target: T1, biotinylated GITR (human, UniProt Q9Y5U5 26-161, limits assumed, biotinylated (sites not given))
T1 construct: also called GITR-bio; Biotin-GITR
T1 sequence: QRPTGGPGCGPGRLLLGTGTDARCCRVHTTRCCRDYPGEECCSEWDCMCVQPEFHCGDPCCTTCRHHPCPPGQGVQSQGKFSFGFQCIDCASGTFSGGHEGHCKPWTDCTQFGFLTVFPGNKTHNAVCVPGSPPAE
Experiment: BLI (Octet), biotin-GITR on streptavidin tips, antibody supernatant

{"columns": ["Binder", "koff"],
 "data": [
  ["germline variant antibody 45 (H1916E05 / K1916E05) (antibody, V domains shown, IGHG1/IGKC expression vectors; measured from CHO culture supernatant; also called Antibody ID 45) VH: QVQLVQSGAEVKKPGASVKVSCKGSGYTFTEYAMYWVRQAPGQGLEWIGLIRTYSGGVSYNQKFQGRVTMTVDTSISTAYMELSRLRSDDTAVYYCAKSGTVRGFAYWGQGTFVTVSS VL: DIVMTQSPDSLAVSLGERATINCKSSQSLLNSGNQKNYLSWYHQKPGQPPKLLIYWASTRESGVPDRFTGSGSGTDFTLTISSVQAEDVAVYYCQNDYSFPYTFGQGTKLEIK", "0.000255 s⁻¹"],
  ["germline variant antibody 18 (H1916B09 / K1916B09) (antibody, V domains shown, IGHG1/IGKC expression vectors; measured from CHO culture supernatant; also called Antibody ID 18) VH: QVQLVQSGTEVKKPGASVKVSCKASGYTFTGYAMYWVRQAPGQGMEWIGLIRTFSGEVTYNQKFRGRVTMTVDTSISTAYMELSRLRSDDTAVYYCAKSGTVRGFAYWGQGTLVTVSS VL: DIVMTQSPDSLAVSLGERATINCKSSQSLLNSSNQKNYLTWYHQKPGQPPKMLIYWASTRESGVPDRFTGSGSGTDFTLTISSVQAEDVAVYYCQNDYSYPYTFGQGTKLEIK", "0.000824 s⁻¹"],
  ["germline variant antibody 21 (H1916C03 / K1916C03) (antibody, V domains shown, IGHG1/IGKC expression vectors; measured from CHO culture supernatant; also called Antibody ID 21) VH: QVQLVQSGTEVKKPGASVKVSCKGSGYTFTGYVMHWVRQAPGQGMEWIGVIRTFSGDVSYNQKFRERVTMTVDTSISTAYMELSRLRSDDTAVYYCAKSGTVRGFAYWGQGTLVTVSS VL: DIVMTQSPDSLAVSLGERATINCKSSQSLLNSGNQKNYLTWYHQKPGQPPKLLIYWASTRESGVPDRFSGSGSGTDFTLTISSVQAEDVAVYHCQNDYSYPYTFGQGTKLEIK", "0.00261 s⁻¹"]
]}
